Data origin, for the record: paper PMC10147690

biological target: hTRPV1 E693A (Homo sapiens, UniProt Q8NER1, E693A); construct: we used the same wild-type full-length construct to determine the hTRPV1 structure; expressed in transfected cells; host or cells: HEK293T ΔPIEZO1 cells, pIRES-EGFP plasmid; test: whole-cell patch-clamp, SB-366791 inhibition of pH 5-induced current, E693A; assay type: cell-based; conditions: response to reviewers, read-out: inhibition by SB-366791, IC50
Sequence (Q8NER1 whole entry E693A): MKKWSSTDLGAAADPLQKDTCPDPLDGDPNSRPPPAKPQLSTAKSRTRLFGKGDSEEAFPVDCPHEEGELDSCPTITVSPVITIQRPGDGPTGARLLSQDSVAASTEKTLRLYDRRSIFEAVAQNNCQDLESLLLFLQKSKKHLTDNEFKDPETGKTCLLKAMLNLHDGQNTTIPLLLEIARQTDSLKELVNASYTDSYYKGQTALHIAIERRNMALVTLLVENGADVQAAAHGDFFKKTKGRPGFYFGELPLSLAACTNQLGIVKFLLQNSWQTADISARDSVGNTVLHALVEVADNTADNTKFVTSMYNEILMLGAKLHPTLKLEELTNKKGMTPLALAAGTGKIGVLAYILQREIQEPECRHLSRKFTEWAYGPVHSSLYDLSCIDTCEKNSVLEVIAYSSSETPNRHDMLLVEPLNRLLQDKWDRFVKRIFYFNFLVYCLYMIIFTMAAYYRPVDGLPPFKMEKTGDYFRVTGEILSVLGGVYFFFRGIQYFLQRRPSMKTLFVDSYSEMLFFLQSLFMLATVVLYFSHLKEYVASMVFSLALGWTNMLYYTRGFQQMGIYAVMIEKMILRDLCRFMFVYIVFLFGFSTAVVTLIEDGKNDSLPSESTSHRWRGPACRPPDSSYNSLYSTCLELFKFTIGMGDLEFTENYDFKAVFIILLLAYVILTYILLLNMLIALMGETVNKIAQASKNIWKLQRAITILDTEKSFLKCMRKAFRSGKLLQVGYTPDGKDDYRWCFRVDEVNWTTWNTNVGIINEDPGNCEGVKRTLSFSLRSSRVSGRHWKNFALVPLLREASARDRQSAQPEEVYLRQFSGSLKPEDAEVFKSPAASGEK
pIC50: −log10 of the molar value.

{"columns": ["compound", "pIC50"],
 "data": [
  ["COc1cccc(NC(=O)/C=C/c2ccc(Cl)cc2)c1 [SB-366791, N-(3-methoxyphenyl)−4-chlorocinnamide]", 7.00]
]}
